Tested on: DU-145 prostate
assay-text: NCI-60 one-dose screen, 48 h
condition-set: 10 µM unless noted
This is part of a sample that, as a whole, favours compounds with a hit. Of some 83,000 tested, about 20% had one in any assay. Active and inactive are the calls of the source. The calls were made as follows: active = growth percent below 10; inactive = the rest.
// allowed return values: active, inactive

Below are worked cases with known answers.
molecule	assigned-category
O=C1COc2ccccc2C(=O)N1CCCCNc1ccccc1	inactive
COc1cc(CN(c2ccc(Cl)cc2)C2OC(=O)c3ccccc32)cc(OC)c1OC (configuration not stated)	inactive

**Query** What did this assay record as the result for CCCC(C)(C)COC(=O)c1cccc(N)c1 ?
**Result** inactive

**Query** // return assay outcome for O=C(Nc1ccc(-n2ccc3c(NC(=O)c4ccccc4)ncnc32)cc1)c1ccc(Cl)c(C(F)(F)F)c1
**Result** inactive

----------
Test system: SK-MEL-28 melanoma
assay-text: NCI-60 one-dose screen, 48 h (100 = growth as untreated, 0 = no growth, -100 = all killed)
condition-set: 10 µM unless noted
About 83,000 compounds went through this panel and 20% of them were active in at least one assay; those are over-represented in the sample as a whole.
Consider the following compounds and their measured growth readings.
Write it as a number; the unit % goes unstated.

Would you please look over these solved cases?
compound	assay-endpoint	value-units	value-reported
CCCCCCCCN(CCCCCCCC)CC(O)c1cc(-c2ccccc2)nc2ccc(OC)cc12 (stereo not given)	growth	%	100
CCOC(=O)n1cnc2c(Cl)ncnc21	growth	%	121
COc1ccccc1S(=O)(=O)Nc1ccc2c3c(cc(-c4cnn(C)c4)nc13)C(=O)N2C	growth	%	63.1
COc1cc2c(cc1OC)-c1c(oc3c4c(ccc3c1=O)OC(C)(C)C=C4)CO2	growth	%	93.8

Shift focus to the following entry.
**Query** API: value(readout= growth, system= SK-MEL-28 melanoma, query= CCOC(=O)C1CSC(C)(C(=O)OCC)N1 (stereo not given) )
**Result** 107

----------
growth for assorted compounds
Tested on: T-47D breast
assay-text: NCI-60 one-dose screen, 48 h (100 = growth as untreated, 0 = no growth, -100 = all killed)
condition-set: 10 µM unless noted
About 83,000 compounds went through this panel and 20% of them were active in at least one assay; those are over-represented in the sample as a whole.
Express the result in % but write the number alone.

Here are 6 compounds together with their reported answers.
compound	value-reported
O=C(Nc1cccc([N+](=O)[O-])c1)Nc1cccc([N+](=O)[O-])c1	6.88
CCCCNC(=O)Oc1ccc(/C(=C(/CC)Cc2ccccc2)c2ccc(OCCCN(C)C)cc2)cc1	60.7
C/C(=N/NC(=O)Cn1c2ccccc2c2ccncc21)c1cccs1	96.4
CN(C)c1ccc(/C=N/N=C(N)N)cc1	81.9
CCC(N)(C(=O)O)c1ccc(F)cc1 (centres undefined)	111
NS(=O)(=O)c1ccc(CCN2C(=O)/C(=C\c3ccc(Cl)cc3)C=C2c2ccc(Oc3ccccc3)cc2)cc1	66.7

**Query** Would you kindly share the measured growth for CC(NCCC(c1ccccc1)c1ccccc1)c1ccccc1 (centres undefined) ?
**Result** 109

**Query** Entry under review: CC(C)(c1ccc(OCC(O)CNCc2ccco2)cc1)c1ccc(OCC(O)CNCc2ccco2)cc1 (centres undefined) . Reported growth?
**Result** 72.4

**Query** // returns reported growth for input CCN(CC)CCNC(=O)c1c(C)[nH]c(/C=C2\C(=O)Nc3cc(NC(=O)NC(=O)c4ccc(OC)cc4F)ccc32)c1C
**Result** 104
